- system-tested: pHrodo-labeled tau P301L soluble oligomer, P10636
- Sequence (P10636 other isoform, or with tags, fused parts or gaps P301L P301L): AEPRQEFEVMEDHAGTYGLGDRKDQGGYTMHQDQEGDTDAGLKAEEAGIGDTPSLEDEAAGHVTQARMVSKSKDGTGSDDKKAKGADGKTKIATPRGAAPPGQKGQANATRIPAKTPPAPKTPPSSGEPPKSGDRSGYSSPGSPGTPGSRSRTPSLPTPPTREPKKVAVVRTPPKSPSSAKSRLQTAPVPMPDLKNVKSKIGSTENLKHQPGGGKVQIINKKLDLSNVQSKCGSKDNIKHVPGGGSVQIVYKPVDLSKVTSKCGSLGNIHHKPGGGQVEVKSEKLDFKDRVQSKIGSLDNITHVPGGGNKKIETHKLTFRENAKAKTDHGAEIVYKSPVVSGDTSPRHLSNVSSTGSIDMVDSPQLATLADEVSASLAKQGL
- test-summary: cell-based or functional assay
readout-label: internalized pHrodo-tau in B103 cells (FACS), antibody at 62.5 µg/mL (% of maximum signal)
Just the number, please, no unit after it.

Query :: Given mouse 17C12 antibody (antibody, mouse IgG2a, V domains shown, here or on the partner: pHrodo label) VH: KIQLQQSGAELVRPGASVKLSCTASAFNIKDDYMNWVKQRPERGLEWIGWIDPENGDTKYASKFQGKATMTADTSSNTAYLQLSSLTSEDTAVYYCTTSNGWGQGTLVTVSA VL: DVVMTQTPLTLSVTIGQPASISCTSSQSLLHSNRKTYLHWLLQRPGQSPKLLIYLVSKLESGVPDRFSGSGSGTDFTLKISRVEAEDLGVYYCLQTTHFPRTFGGGTKLEIK , respond with its internalized pHrodo-tau in B103 cells (FACS), antibody at 62.5 µg/mL (% of maximum signal).
Result :: 30.6

Query :: Given mouse 14H3 antibody (antibody, mouse IgG2a, V domains shown, here or on the partner: pHrodo label) VH: QVTLKESGPGILQPSQTLSLTCSFSGFSLSTYGMGVGWIRQPSGKGLEWLANIWWDDIKYYNAALKSRLTISKDTSKNQVFLKIASVDTADTATYYCARNVDYWGQGTTLTVSS VL: DVVMTQTPLSLPVSLGDQASISCRSSQSLVHSNGNTFLHWYLQKPGQSPKLLIYKVSNRFSGVPDRFSGSGSGTDFTLKISRVEAEDLGVYFCSQSTLVPWTFGGGTKLEIK , respond with its internalized pHrodo-tau in B103 cells (FACS), antibody at 62.5 µg/mL (% of maximum signal).
Result :: 48.4

Query :: Given mouse 10C12 antibody (antibody, mouse IgG2a, V domains shown, here or on the partner: pHrodo label) VH: EVQLQQSGAELVRPGASVKLSCTASGFNIKDDYMNWVKQRPERGLEWIGWIDPENGDTEYASKFQGKATMTADTSSNTAYLQFSSLTSEDTAVYYCTTSNGWGQGTLVTVST VL: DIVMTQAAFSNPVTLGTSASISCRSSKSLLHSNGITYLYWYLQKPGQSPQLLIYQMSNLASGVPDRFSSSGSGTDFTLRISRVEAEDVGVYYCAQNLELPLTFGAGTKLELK , respond with its internalized pHrodo-tau in B103 cells (FACS), antibody at 62.5 µg/mL (% of maximum signal).
Result :: 34.5
